- STUDY_SYSTEM: human ether-à-go-go-related gene (hERG) potassium channel (human);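 further: peak tail current of the secondary pulse compared with the same well before compound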
- EXPERIMENTAL_PROTOCOL: primary screen, population patch clamp on CHO cells stably expressing hERG; higher = less effect of the substance
The campaign covered roughly 310,000 compounds. About 14,000 (4.5%) showed an effect of 50% or more. Effects have a minus sign here. Many of the other results were omitted from the sample, so strong results are more common in it than they were.
Exercise: for every item that follows, state its recorded hERG current change (%, negative = inhibition) at 10uM.
Dear colleague, please return just the value in %, with no unit written.

IN: Please give the measured hERG current change (%, negative = inhibition) at 10uM for this molecule: Cc1ccccc1Nc1cc(C(=O)NCc2ccco2)c2ccccc2n1
OUT: 20.3

IN: Also O=C(Nc1ccccc1O)c1ccc(C(=O)c2ccccc2)o1 , if possible.
OUT: 11.2

IN: Moving on to O=C1c2ccccc2C(=O)N1CCC(c1ccc(F)cc1)c1ccco1 (stereo not shown)
OUT: -6.1

IN: Also check COc1ccccc1NC(=O)c1ccc(C(=O)c2ccccc2)o1
OUT: -69.4

IN: Same again, this time with COc1ccc(CCn2c(=N)c(C(=O)NCc3ccco3)cc3c(=O)n4cccc(C)c4nc32)cc1
OUT: -75.6

IN: Now consider CS(=O)(=O)c1ccc(C(=O)Nc2cccc(-c3nc4ccccc4[nH]3)c2)cc1 and answer again.
OUT: 16

IN: Same again, this time with COc1ccc(CCn2c(N)c(C(=O)NCc3ccco3)c3nc4ccccc4nc32)cc1
OUT: 0.65

IN: // next record O=C(CNS(=O)(=O)/C=C/c1ccccc1)OC1CCOC1=O (stereo not shown)
OUT: 15.9

IN: Moving on to the next molecule: CCCCN(CC)CCCNC(=O)c1cc2cc3ccc(OC)cc3nc2o1
OUT: -64.5

IN: Another: COC(=O)c1ccc(OC)c(CSc2nnc(COc3ccccc3)o2)c1
OUT: -17.7

IN: Field entry: COc1ccccc1NC(=O)c1ccc(Br)o1
OUT: -6.16

IN: Quick one: Cc1ccc2cc3cc(C(=O)NCCC(C)C)oc3nc2c1
OUT: 8.43

IN: // same read-out, input: Nc1ccc2c(c1)ncn2CCCn1cnc2cc(N)ccc21
OUT: -14.7

IN: // query: COc1ccc(CN2C3CCCC2CC(NC(=O)/C=C/c2ccccc2)C3)cc1 (stereo not shown)
OUT: -88

IN: Quick one: CCCCN(C)CCNC(=O)c1cc2cc3ccc(OC)cc3nc2o1
OUT: -43

IN: Try Cc1cccn2c(=O)c3cc(C(=O)NCc4ccco4)c(=N)n(CCOCCO)c3nc12 next.
OUT: -74.9

IN: Similarly, CC(C)CC(=O)Nc1cccc(-c2nc3ccccc3[nH]2)c1 ?
OUT: -16.5

IN: Same lookup for Cc1ccc2cc3cc(C(=O)NC4CC4)oc3nc2c1 , please.
OUT: 8.43

IN: Similarly, COc1cc(C(=O)NC2CC3CCCC(C2)N3Cc2ccccc2)cc(OC)c1OC (stereo not shown) ?
OUT: 8.89

* * *

- STUDY_SYSTEM: human ether-à-go-go-related gene (hERG) potassium channel (human, UniProt Q12809);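 further: peak tail current of the secondary pulse compared with the same well before compound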
- Sequence (Q12809 whole entry, looked up): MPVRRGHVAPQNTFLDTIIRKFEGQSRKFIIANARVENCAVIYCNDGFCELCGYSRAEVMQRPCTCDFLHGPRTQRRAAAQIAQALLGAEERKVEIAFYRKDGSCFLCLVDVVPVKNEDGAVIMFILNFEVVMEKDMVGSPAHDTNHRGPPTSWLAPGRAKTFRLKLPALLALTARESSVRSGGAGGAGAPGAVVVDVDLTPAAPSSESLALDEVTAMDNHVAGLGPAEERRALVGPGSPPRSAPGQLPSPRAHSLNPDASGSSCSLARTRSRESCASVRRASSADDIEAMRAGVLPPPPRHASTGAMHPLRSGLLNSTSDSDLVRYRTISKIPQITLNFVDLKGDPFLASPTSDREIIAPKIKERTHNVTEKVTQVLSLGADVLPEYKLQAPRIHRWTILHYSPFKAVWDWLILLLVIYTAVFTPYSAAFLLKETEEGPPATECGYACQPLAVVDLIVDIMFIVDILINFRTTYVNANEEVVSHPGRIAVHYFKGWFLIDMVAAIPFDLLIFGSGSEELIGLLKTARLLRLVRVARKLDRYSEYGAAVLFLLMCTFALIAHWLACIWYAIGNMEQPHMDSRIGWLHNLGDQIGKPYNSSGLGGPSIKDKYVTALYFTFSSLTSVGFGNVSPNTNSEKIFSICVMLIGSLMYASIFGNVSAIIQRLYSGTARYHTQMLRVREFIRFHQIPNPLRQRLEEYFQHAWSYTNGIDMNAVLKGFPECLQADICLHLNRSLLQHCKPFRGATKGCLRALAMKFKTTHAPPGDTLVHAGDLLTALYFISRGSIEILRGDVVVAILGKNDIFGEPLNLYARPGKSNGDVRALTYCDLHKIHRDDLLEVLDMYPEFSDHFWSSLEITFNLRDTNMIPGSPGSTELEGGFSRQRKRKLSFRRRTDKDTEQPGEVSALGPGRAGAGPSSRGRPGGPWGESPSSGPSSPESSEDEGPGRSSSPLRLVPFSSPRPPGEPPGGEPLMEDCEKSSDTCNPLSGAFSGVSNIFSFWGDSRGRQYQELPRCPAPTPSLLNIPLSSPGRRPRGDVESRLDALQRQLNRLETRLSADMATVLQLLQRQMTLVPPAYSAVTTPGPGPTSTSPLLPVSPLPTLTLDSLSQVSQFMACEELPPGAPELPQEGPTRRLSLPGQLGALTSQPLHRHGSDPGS
- EXPERIMENTAL_PROTOCOL: primary screen, population patch clamp on CHO cells stably expressing hERG; higher = less effect of the substance
Among all 310,000 compounds or so, about 14,000 (4.5%) showed an effect of 50% or more. The effect is printed as a negative number. The sample holds strong results, similar compounds and a random draw of the others, so the mix is not that of the screen.
READOUT_KIND: hERG current change (%, negative = inhibition) at 10uM
Just so you know, I need the unit written after the number.

IN: Look up hERG current change (%, negative = inhibition) at 10uM: O=C(COC(=O)c1ccccc1NC(=O)c1ccco1)Nc1ccc2c(c1)OC(F)(F)O2
OUT: 12.2%

IN: Here is the next molecule: CNc1ccc(NC(C)=O)cc1[N+](=O)[O-]
OUT: 1.68%

IN: Now the same for c1ccc2oc(-c3[nH]ncc3CN3CCSCC3)cc2c1
OUT: -5.92%

IN: Also CCOC(=O)c1ccc(NC(=O)c2ccccc2C)cc1 , if possible.
OUT: -21.2%

IN: Likewise for CCc1c(C)nc2ncnn2c1N1CCC(C(=O)Nc2ccc(C)cc2)CC1 ?
OUT: -55.9%

IN: // next record O=C(O)Cc1sc(NCCc2ccccc2)nc1-c1ccc(F)cc1
OUT: 3.77%

IN: Now consider O=C(c1ccccc1)N(Cc1cccnc1)C1(C(=O)Nc2ccccc2)CCCCC1 .
OUT: 5.29%

IN: Please do the same for O=C(CCn1cnnn1)Nc1cccc(F)c1 as well.
OUT: 21.3%

IN: Now consider COc1ccc(Br)c(-c2nnc(CS(=O)(=O)c3ccccc3)o2)c1 and answer again.
OUT: -29.3%

IN: Moving on to COc1ccc(S(N)(=O)=O)cc1C(=O)NCCCN1CCN(c2ccc(C)cc2)CC1
OUT: -50.7%

IN: Field entry: CCOc1ccccc1-c1nnc(CS(=O)(=O)c2ccccc2)o1
OUT: -52.5%

IN: COc1ccc(-c2[nH]ncc2CN2CCC(N3CCSCC3)CC2)c(F)c1 , same question.
OUT: 1.98%

IN: Same thing, different molecule: Cc1ccc(C(C(=O)NCc2ccco2)N(C(=O)CNC(=O)c2cccs2)c2ccc(C)cc2C)cc1 (stereo not drawn)
OUT: -10.3%

IN: What do you get for O=C(NC(=S)NCC1CCCO1)c1ccc([N+](=O)[O-])cc1 (stereo not drawn) ?
OUT: -16.6%

IN: Then this molecule: O=C(COc1ccc2c(c1)C(=O)CC1(CCCCC1)O2)NCc1ccccn1
OUT: -33.9%

IN: Likewise for O=C(NCC1CCCO1)c1ccc(Oc2ccc([N+](=O)[O-])cc2)cc1 (stereo not drawn) ?
OUT: -60.8%

IN: Another: O=C(NCCCN1CCCC1)c1ccc(CS(=O)(=O)c2ccc(Cl)cc2)o1
OUT: -6.15%

IN: Then this molecule: O=C(NCC1CCCO1)c1ccc(COc2ccc(Br)cc2)cc1 (stereo not drawn)
OUT: -13.7%

IN: Field entry: CCCn1nc(C(=O)NCCc2ccc(S(N)(=O)=O)cc2)c2ccccc2c1=O
OUT: -15.8%

IN: For O=C(NCC1CCCO1)c1ccc(COc2ccccc2)cc1 (stereo not drawn) then?
OUT: -56.3%

IN: Please do the same for CCN1C(=O)C(CC(=O)Nc2ccc(OC)cc2)N(CCc2ccccc2)C1=S (stereo not drawn) as well.
OUT: -1.28%

IN: Thanks! And COc1ccc(N2CCN(CCCNC(=O)c3ccc(CS(=O)(=O)c4ccc(Cl)cc4)o3)CC2)cc1 ?
OUT: -77.1%

IN: Proceed to CN(C)/C=C(\C#N)S(=O)(=O)c1ccccc1
OUT: 9.4%

IN: Another: COc1ccc(N2CCN(CCCNC(=O)c3ccc(CS(=O)(=O)c4ccc(OC)cc4)o3)CC2)cc1
OUT: -68.9%

IN: How about c1ccc(-c2ccc(-c3[nH]ncc3CN3CCC(N4CCSCC4)CC3)cc2)cc1 ?
OUT: -80.7%

IN: Try the molecule O=C(NCC1CCCO1)c1ccc(Oc2ccc([N+](=O)[O-])cc2Cl)cc1 (stereo not drawn)
OUT: -41.6%

IN: // same read-out, input: CC(=O)c1ccc(-c2ccc(C(=O)NC3CC(C)(C)NC(C)(C)C3)o2)cc1
OUT: -122%

IN: Okay, and COc1ccc(C(=O)O)cc1S(=O)(=O)Nc1cccc(C)c1 ?
OUT: -18.9%

IN: What do you get for COc1ccc(S(=O)(=O)Cc2ccc(C(=O)NC3CC3)o2)cc1 ?
OUT: -2.21%

IN: Record: CCCCN(C1CCS(=O)(=O)C1)S(=O)(=O)c1ccc(OC)cc1 (stereo not drawn)
OUT: -24.5%

IN: Same lookup for COCC1CCN(Cc2cn[nH]c2-c2cc3ccccc3o2)C1 (stereo not drawn) , please.
OUT: -33.7%

IN: Another molecule to look at: O=C(NNC(=S)NC(=O)c1ccccc1[N+](=O)[O-])c1ccc(Cl)cc1Cl
OUT: -58.2%

IN: Also, Clc1ncc(Cn2cccn2)s1 please.
OUT: 10.5%
